target: UniProt:Q9NZJ5; assay: radiometric filter-binding kinase assay; settings: compound 1.0 µM
Sequence (Q9NZJ5 whole entry, looked up): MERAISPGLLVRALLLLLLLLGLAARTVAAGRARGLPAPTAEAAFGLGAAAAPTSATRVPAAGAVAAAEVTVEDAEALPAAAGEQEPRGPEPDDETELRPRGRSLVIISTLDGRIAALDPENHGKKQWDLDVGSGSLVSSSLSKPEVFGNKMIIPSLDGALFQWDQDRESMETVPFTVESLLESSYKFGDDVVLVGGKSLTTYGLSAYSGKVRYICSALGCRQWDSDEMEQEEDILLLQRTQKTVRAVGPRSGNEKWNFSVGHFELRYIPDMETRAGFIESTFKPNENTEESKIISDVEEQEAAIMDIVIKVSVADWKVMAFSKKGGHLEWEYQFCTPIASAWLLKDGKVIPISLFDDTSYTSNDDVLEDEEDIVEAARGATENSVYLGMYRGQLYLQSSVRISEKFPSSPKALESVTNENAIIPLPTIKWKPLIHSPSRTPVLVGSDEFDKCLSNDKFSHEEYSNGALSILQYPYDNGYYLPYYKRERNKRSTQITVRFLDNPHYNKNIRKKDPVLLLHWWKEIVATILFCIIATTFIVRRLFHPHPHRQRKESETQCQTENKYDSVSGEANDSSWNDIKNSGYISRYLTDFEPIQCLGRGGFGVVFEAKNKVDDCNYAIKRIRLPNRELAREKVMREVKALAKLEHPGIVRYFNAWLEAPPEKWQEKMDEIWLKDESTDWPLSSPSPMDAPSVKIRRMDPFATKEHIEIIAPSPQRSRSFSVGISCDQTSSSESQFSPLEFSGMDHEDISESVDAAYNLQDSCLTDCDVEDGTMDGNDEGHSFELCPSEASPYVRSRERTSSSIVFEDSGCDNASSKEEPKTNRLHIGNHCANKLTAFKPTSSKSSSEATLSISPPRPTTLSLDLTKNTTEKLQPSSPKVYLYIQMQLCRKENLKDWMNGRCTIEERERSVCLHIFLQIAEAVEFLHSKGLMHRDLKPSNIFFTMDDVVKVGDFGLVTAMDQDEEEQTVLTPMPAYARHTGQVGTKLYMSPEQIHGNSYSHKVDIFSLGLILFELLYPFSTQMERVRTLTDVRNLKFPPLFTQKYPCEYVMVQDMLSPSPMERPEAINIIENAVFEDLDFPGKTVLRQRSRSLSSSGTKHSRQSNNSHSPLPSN
Would you mind telling me the reported residual activity of each entry?
Expressed in %, but write only the number.

Task: residual activity lookup needed for NC(=O)c1cc(-c2ccnc(NC3CCCCC3)c2)nc(N2CCNCC2)c1 , thanks.
Output: 101

Task: Entry CN(C)C/C=C/C(=O)Nc1cccc(C(=O)Nc2ccc(Nc3nccc(-c4cccnc4)n3)cc2)c1 please
Output: 99

Task: Entry CC1=C(CO)C(=O)O[C@@H]([C@@H](C)[C@H]2CC[C@H]3[C@@H]4C[C@H]5O[C@]56[C@@H](O)C=CC(=O)[C@]6(C)C4CC[C@]23C)C1 (some centres undefined) please
Output: 108

Task: Entry CCn1c(-c2nonc2N)nc2cncc(CNC3CCNCC3)c21 please
Output: 105

Task: Entry CNC(=O)C1[C@H]2O[C@@](C)([C@@H]1N)n1c3ccccc3c3c4c(c5c6ccccc6n2c5c31)C(=O)NC4 (some centres undefined) please
Output: 36

Task: Entry C=C1C(=O)OC2C1CC/C(C)=C/CCC1(C)OC21 (centres undefined) please
Output: 111

Task: Entry C=CC(=O)N1CCC[C@@H](n2nc(-c3ccc(Oc4ccccc4)cc3)c3c(N)ncnc32)C1 please
Output: 81

Task: Entry CCNc1nc(Nc2cc(F)c(C(=O)N3CCOCC3)cc2OC)ncc1C(F)(F)F please
Output: 99

Task: Entry O=C(NCCCNc1nc(Nc2cccc(CN3CCOCC3)c2)ncc1C1CC1)C1CCC1 please
Output: 86

----------
molecular target: EPHA2 (human) (UniProt P29317); assay: radiometric filter-binding kinase assay; conditions: compound 0.1 µM
Sequence (P29317 whole entry, looked up): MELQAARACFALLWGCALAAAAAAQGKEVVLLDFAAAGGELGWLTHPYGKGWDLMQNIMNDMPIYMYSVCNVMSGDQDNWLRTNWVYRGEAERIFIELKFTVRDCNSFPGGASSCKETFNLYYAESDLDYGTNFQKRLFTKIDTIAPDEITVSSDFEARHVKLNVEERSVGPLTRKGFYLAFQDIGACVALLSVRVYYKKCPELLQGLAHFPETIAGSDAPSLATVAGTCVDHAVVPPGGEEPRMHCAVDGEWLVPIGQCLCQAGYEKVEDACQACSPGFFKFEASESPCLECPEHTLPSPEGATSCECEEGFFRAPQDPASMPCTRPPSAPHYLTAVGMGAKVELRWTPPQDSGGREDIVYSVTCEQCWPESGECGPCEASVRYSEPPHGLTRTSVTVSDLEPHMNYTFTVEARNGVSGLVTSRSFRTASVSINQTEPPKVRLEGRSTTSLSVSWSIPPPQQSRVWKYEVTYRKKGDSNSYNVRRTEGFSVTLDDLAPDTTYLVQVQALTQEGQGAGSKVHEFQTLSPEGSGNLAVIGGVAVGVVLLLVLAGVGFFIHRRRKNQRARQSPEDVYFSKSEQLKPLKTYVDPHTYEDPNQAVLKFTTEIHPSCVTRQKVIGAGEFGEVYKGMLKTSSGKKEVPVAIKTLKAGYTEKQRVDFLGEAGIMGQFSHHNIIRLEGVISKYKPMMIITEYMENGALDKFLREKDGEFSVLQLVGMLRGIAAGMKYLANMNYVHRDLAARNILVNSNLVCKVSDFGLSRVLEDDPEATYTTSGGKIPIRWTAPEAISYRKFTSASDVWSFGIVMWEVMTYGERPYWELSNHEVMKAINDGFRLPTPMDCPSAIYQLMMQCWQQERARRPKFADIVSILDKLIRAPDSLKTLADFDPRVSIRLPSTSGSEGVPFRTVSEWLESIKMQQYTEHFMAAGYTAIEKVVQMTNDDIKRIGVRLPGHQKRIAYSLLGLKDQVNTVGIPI
Would you mind telling me the reported residual activity of each entry?
Expressed in %, but write only the number.

Task: residual activity lookup needed for O=C(O)c1ccc(-c2c[nH]c3ncc(-c4ccccc4)cc23)cc1C1CCCC1 , thanks.
Output: 92

Task: Entry Cc1cc(NC(=O)c2cccc(NC(=O)/C=C/CN(C)C)c2)ccc1Nc1nccc(-c2cccnc2)n1 please
Output: 118

Task: Entry Cc1cccc(-c2nn(C(=S)Nc3ccccc3)cc2-c2ccnc3ccccc23)n1 please
Output: 105

Task: Entry O=C(NCCCNc1nc(Nc2cccc(CN3CCOCC3)c2)ncc1C1CC1)C1CCC1 please
Output: 95

Task: Entry NC(=O)c1cc(-c2ccnc(NC3CCCCC3)c2)nc(N2CCNCC2)c1 please
Output: 78

Task: Entry CCCCCc1ccc(/C=C/[C@H](O)[C@@H](CO)NC)cc1 please
Output: 103

Task: Entry O=C(Nc1ccccc1-c1cn2c(CN3CCNCC3)csc2n1)c1cnc2ccccc2n1 please
Output: 97

Task: Entry COc1cc(O)c2c(c1)/C=C/C[C@H](O)[C@H](O)C(=O)/C=C\C[C@H](C)OC2=O please
Output: 99

Task: Entry C/C(=C1/C(=O)Nc2ccc(NC(N)=O)cc21)c1ccc[nH]1 please
Output: 87

Task: Entry CN1CCN(CCOc2cc(OC3CCOCC3)c3c(Nc4c(Cl)ccc5c4OCO5)ncnc3c2)CC1 please
Output: 55

Task: Entry CNC(=O)C1[C@H]2O[C@@](C)([C@@H]1N)n1c3ccccc3c3c4c(c5c6ccccc6n2c5c31)C(=O)NC4 (some centres undefined) please
Output: 53

Task: Entry COc1ccc(-n2ncc3cnc(Nc4cc(OC)c(OC)c(OCCCN5CCN(C)CC5)c4)nc32)cc1 please
Output: 28

Task: Entry CC1=C(CO)C(=O)O[C@@H]([C@@H](C)[C@H]2CC[C@H]3[C@@H]4C[C@H]5O[C@]56[C@@H](O)C=CC(=O)[C@]6(C)C4CC[C@]23C)C1 (some centres undefined) please
Output: 94

Task: Entry C=CC(=O)N1CCC[C@@H](n2nc(-c3ccc(Oc4ccccc4)cc3)c3c(N)ncnc32)C1 please
Output: 91

Task: Entry c1ccc2c(-c3cnn4cc(-c5ccc(N6CCNCC6)cc5)cnc34)ccnc2c1 please
Output: 81

Task: Entry NC(=O)Nc1ccc2c(c1)/C(=C/c1cc(-c3cccnc3)c[nH]1)C(=O)N2 please
Output: 93

Task: Entry NC1(c2ccc(-c3nc4ccn5c(=O)[nH]nc5c4cc3-c3ccccc3)cc2)CCC1 please
Output: 86

Task: Entry Cc1ccc(Sc2cnc(Nc3cccc(Br)n3)s2)cc1C(=O)N1CCN(C(=O)CN)CC1 please
Output: 46

Task: Entry Cc1ccc(-c2ccc3c(ccc4sc5c(c43)NC[C@@H](C)NC5=O)n2)cn1 please
Output: 90

----------
Would you mind telling me the reported residual activity of each entry?
target: IRAK1 (human); test: radiometric filter-binding kinase assay; conditions: compound 1.0 µM
Expressed in %, but write only the number.

Task: Provide the documented residual activity with IRAK1 (human) as the system for O=C(Nc1nc2cc(C(F)(F)F)cc(NC3CC3)n2n1)c1cccnc1
Output: 89

Task: Entry Cc1ccc(=O)n(-c2ccccc2)c1 please
Output: 105

Task: Entry CC(C)(C#N)c1ccc(N2C(=O)OCc3cnc4ccc(-c5cnc6ccccc6c5)cc4c32)cc1 please
Output: 79

Task: Entry CC1=C(CO)C(=O)O[C@@H]([C@@H](C)[C@H]2CC[C@H]3[C@@H]4C[C@H]5O[C@]56[C@@H](O)C=CC(=O)[C@]6(C)C4CC[C@]23C)C1 (some centres not stated) please
Output: 99

Task: Entry Cc1ccc(-c2ccc3c(ccc4sc5c(c43)NC[C@@H](C)NC5=O)n2)cn1 please
Output: 77

Task: Entry CNc1nc(-c2ccc3c(N)n[nH]c3c2)cc(N2C[C@@H](C(=O)NC3CCCCC3)CC[C@H]2C)n1 please
Output: 105

Task: Entry C=CC(=O)N1CCC[C@@H](n2nc(-c3ccc(Oc4ccccc4)cc3)c3c(N)ncnc32)C1 please
Output: 115

Task: Entry O=C(N[C@@H](COc1ccc2[nH]c(=O)[nH]c2c1)c1ccccc1)c1cccn(Cc2ccc(F)c(F)c2)c1=O please
Output: 118

Task: Entry O=C(NCCCNc1nc(Nc2cccc(CN3CCOCC3)c2)ncc1C1CC1)C1CCC1 please
Output: 79

Task: Entry CNC(=O)C1[C@H]2O[C@@](C)([C@@H]1N)n1c3ccccc3c3c4c(c5c6ccccc6n2c5c31)C(=O)NC4 (some centres not stated) please
Output: 3

Task: Entry Nc1cccc2c1CN(C1CCC(=O)NC1=O)C2=O (configuration not stated) please
Output: 96

Task: Entry O=C(NOC[C@H](O)CO)c1ccc(F)c(F)c1Nc1ccc(I)cc1Cl please
Output: 84

Task: Entry COc1cc(C(=O)N2CCOCC2)c(F)cc1Nc1ncc(C(F)(F)F)c(NC2CC2)n1 please
Output: 98

Task: Entry Cc1cc(NC(=O)c2cccc(NC(=O)/C=C/CN(C)C)c2)ccc1Nc1nccc(-c2cccnc2)n1 please
Output: 63

Task: Entry C=C1C(=O)OC2C1CC/C(C)=C/CCC1(C)OC21 (configuration not stated) please
Output: 96

Task: Entry Cc1nc(-c2ccc(OCC(C)C)c(C#N)c2)sc1C(=O)O please
Output: 106

Task: Entry CCNc1nc(Nc2cc(F)c(C(=O)N3CCOCC3)cc2OC)ncc1C(F)(F)F please
Output: 100

Task: Entry CN(C)C/C=C/C(=O)Nc1cccc(C(=O)Nc2ccc(Nc3nccc(-c4cccnc4)n3)cc2)c1 please
Output: 5

Task: Entry O=C(NOCC(O)CO)c1ccc(F)c(F)c1Nc1ccc(I)cc1Cl (configuration not stated) please
Output: 81

Task: Entry CCn1c(-c2nonc2N)nc2cncc(CNC3CCNCC3)c21 please
Output: 103

Task: Entry COc1ccc(N(C(=O)Nc2c(C)cccc2C)c2cc(Nc3ccc(N4CCN(C)CC4)cc3)ncn2)c(OC)c1 please
Output: 95

Task: Entry COc1ccc(-n2ncc3cnc(Nc4cc(OC)c(OC)c(OCCCN5CCN(C)CC5)c4)nc32)cc1 please
Output: 5

----------
system: AKT2 (human), P31751 [S474D]; test: radiometric filter-binding kinase assay; conditions: compound 0.1 µM
Sequence (P31751 whole entry S474D, looked up): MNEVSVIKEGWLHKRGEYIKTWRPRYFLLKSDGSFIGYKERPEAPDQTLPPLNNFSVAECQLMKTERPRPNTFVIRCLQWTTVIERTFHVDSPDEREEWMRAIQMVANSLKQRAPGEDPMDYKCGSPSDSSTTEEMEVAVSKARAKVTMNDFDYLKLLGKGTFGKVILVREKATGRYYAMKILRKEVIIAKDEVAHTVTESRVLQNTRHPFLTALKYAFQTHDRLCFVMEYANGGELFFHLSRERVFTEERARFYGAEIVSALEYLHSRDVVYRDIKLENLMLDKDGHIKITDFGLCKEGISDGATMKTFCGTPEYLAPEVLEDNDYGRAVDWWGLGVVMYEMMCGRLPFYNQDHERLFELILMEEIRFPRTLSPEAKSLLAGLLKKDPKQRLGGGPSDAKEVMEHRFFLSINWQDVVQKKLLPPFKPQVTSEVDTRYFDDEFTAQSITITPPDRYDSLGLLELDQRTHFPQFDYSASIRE
MEASURED_ATTRIBUTE: residual activity (%)
Expressed in %, but write only the number.

Task: residual activity lookup needed for O=C(N[C@@H](COc1ccc2[nH]c(=O)[nH]c2c1)c1ccccc1)c1cccn(Cc2ccc(F)c(F)c2)c1=O , thanks.
Output: 98

Task: Entry NC(=O)c1cc2c(-c3cccc(-c4ccccc4)c3)cnc(N)c2s1 please
Output: 94

Task: Entry C=CC(=O)N1CCC[C@@H](n2nc(-c3ccc(Oc4ccccc4)cc3)c3c(N)ncnc32)C1 please
Output: 80

Task: Entry Cc1cc(NC(=O)c2cccc(NC(=O)/C=C/CN(C)C)c2)ccc1Nc1nccc(-c2cccnc2)n1 please
Output: 99

----------
molecular target: AURKB (human); test: radiometric filter-binding kinase assay; details: compound 10.0 µM
MEASURED_ATTRIBUTE: residual activity (%)
Expressed in %, but write only the number.

Task: residual activity lookup needed for NC(=O)c1ccc(-c2ccc(Oc3cncc4sc(-c5nn[nH]n5)cc34)cc2)cc1 , thanks.
Output: 58

Task: Entry Nc1cccc2c1CN(C1CCC(=O)NC1=O)C2=O (stereo not given) please
Output: 105

Task: Entry O=C(NOC[C@H](O)CO)c1ccc(F)c(F)c1Nc1ccc(I)cc1Cl please
Output: 82

Task: Entry CC(C)C[C@H](NC(=O)CNC(=O)c1cc(Cl)ccc1Cl)B1OC(=O)CC(CC(=O)O)(C(=O)O)O1 (stereo not given in full) please
Output: 75

Task: Entry Cc1cc(SCc2sc(-c3ccc(C(F)(F)F)cc3)nc2C)ccc1OCC(=O)O please
Output: 100

Task: Entry COc1ccc2c(c1)c1c3c(c4c5ccccc5n(C)c4c1n2CC(O)CN(C)C)C(=O)NC3=O (stereo not given) please
Output: 12

Task: Entry O=S(=O)(c1ccc(F)c2nonc12)N1CCN(c2ncc(C(F)(F)F)cc2Cl)CC1 please
Output: 96

Task: Entry CCCCCc1ccc(/C=C/[C@H](O)[C@@H](CO)NC)cc1 please
Output: 93

Task: Entry C[C@H]1CCCC(=O)CCC/C=C/c2cc(O)cc(O)c2C(=O)O1 please
Output: 23

Task: Entry CN1C(=O)[C@@H](Cc2c[nH]c3ccccc23)NC1=S please
Output: 106
